target or test system: KRas G12C (Homo sapiens, UniProt P01116, G12C)
Sequence (P01116 1-188 isoform P01116-2 G12C): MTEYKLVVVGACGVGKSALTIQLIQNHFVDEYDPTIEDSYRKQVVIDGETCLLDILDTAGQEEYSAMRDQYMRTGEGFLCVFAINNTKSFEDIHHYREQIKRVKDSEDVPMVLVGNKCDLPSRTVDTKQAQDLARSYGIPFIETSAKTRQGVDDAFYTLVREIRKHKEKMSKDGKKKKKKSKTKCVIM
measurement protocol: Cellular inhibition of KRas G12C measured by Phospho-ERK in NCI-H358 cells
Format: cell-based
details: pERK(Thr202/Tyr204) normalized with GAPDH, NCI-H358 cells, 3 hours; read-out: IC50
Listed below: IC50 values for each entry.

- molecule: "C=CC(=O)N1CCN(c2nc(OCCCN3CCOCC3)nc3c2CCN(c2cc(C(F)F)cc4ccccc24)C3)CC1 [Example 112]"
  target or test system: "KRas G12C (Homo sapiens, UniProt P01116, G12C)"
  IC50: "> 1000 nM"
- molecule: "Cc1cccc2cccc(N3CCc4c(nc(OC[C@@H]5CCCN5C)nc4N4CCN(C(=O)/C=C/c5ccccn5)[C@@H](CC#N)C4)C3)c12 [Example 493]"
  target or test system: "KRas G12C (Homo sapiens, UniProt P01116, G12C)"
  IC50: "0.1 to 1000 nM"
- molecule: "CN1CCC[C@H]1COc1nc2c(c(N3CCN(C(=O)/C=C/CN4CC(F)C4)[C@@H](CC#N)C3)n1)CCN(c1cccc3cccc(Cl)c13)C2 [Example 481]"
  target or test system: "KRas G12C (Homo sapiens, UniProt P01116, G12C)"
  IC50: "0.1 to 1000 nM"
